Target: GlcNAc(b1-3)Gal(b1-4)GlcNAc(b1-3)Gal(b1-4)GlcNAc(b1-3)Gal(b1-4)GlcNAc(b1-2)[GlcNAc(b1-3)Gal(b1-4)GlcNAc(b1-3)Gal(b1-4)GlcNAc(b1-3)Gal(b1-4)GlcNAc(b1-6)]Man(a1-6)[GlcNAc(b1-3)Gal(b1-4)GlcNAc(b1-3)Gal(b1-4)GlcNAc(b1-3)Gal(b1-4)GlcNAc(b1-2)Man(a1-3)]Man(b1-4)GlcNAc(b1-4)[Fuc(a1-6)]GlcNAc
Assay: glycan array binding signal (z-score within array); higher = stronger binding
Conditions: glycan notation: IUPAC condensed, linker removed
Many of the other results were omitted from the sample, so the strongest signals are more common in it than they were.
QUANTITY: glycan array binding signal (z-score)

For this binder ( LysMD3 (Homo sapiens), Q7Z3D4 (protein) MAGRHQNRSFPLPGVQSSGQVHAFGNCSDSDILEEDAEVYELRSRGKEKVRRSTSRDRLDDIIVLTKDIQEGDTLNAIALQYCCTVADIKRVNNLISDQDFFALRSIKIPVKKFSSLTETLCPPKGRQTSRHSSVQYSSEQQEILPANDSLAYSDSAGSFLKEVDRDIEQIVKCTDNKRENLNEVVSALTAQQMRFEPDNKNTQRKDPYYGADWGIG ), measured glycan array binding signal (z-score) is 2.41

Documented glycan array binding signal (z-score) of Clec49 (Caenorhabditis elegans) (protein) MTRLTLLLFGLLGAATAQTCNTGGIYNEQFNRCYQYFTAPAQFSFAEQQCNLLGGHLASVQNGQENALLQSNAANSFKRSNYSDYWIGATDLETSGTWKWTDPSVTFDYSNWQLGEPQSGSDCAIQDKGDGTWSAIGCTSYRPYVCVTPVIMTATCPPITTPIPTTCPTPAPCPIKQCVPSCDQGWTYFSPTDFCYRVYHGEKFNDAEASCVLLGGHLASIHSLTENTFVNNIASCGIKEGKYEHLAWIGMRKVGQDWVWTDGTPSDYFNWAPKQPDNPKKELCVQTAPDLSHDKWYENWNNLECNEVMRAYICKKASIHN : 0.571
